Test system: 786-0 renal
Test: NCI-60 one-dose screen, 48 h
Protocol conditions: 10 µM unless noted
Compounds without any hit were thinned out: in the full panel of roughly 83,000, 20% have a hit. Calls of active or inactive are those of the source. How the source made its calls: active means growth percent below 10; inactive means the rest.
I would appreciate it if you answered using one of these outcomes: y = active, n = inactive

The following molecules have reported results that may help.
O=C(Cn1cc(CSc2nc3ccccc3o2)nn1)Nc1ccc(F)cc1F: n
Cc1ccc(NC(=O)c2sc3nc(C)c(Br)c(C)c3c2N)cc1: n
C=C1C(=O)O[C@H]2[C@H]1CC/C(Cn1cc(-c3ccccc3)nn1)=C\CC[C@@]1(C)O[C@@H]21: y
CC/C=C\C[C@H](O)C/C=C1/C(=O)C=C[C@@H]1C/C=C\CCCC(=O)N(C)C: y
CCOC(=O)C1=C(N)Oc2c(sc3c(F)cccc23)C1c1ccc(O)cc1 (centres undefined): n
COc1cc(NS(=O)(=O)c2ccc(-c3cnc(C4CC4)o3)cc2)ccc1F: n

Assay result, entry Cc1nc2sc(C(=O)Nc3cccc(Br)c3)c(N)c2cc1C(O)c1ccccc1 (centres undefined) — outcome?
n

Assay result, entry COC(=O)CC[C@H](C)[C@H]1CC[C@H]2[C@@H]3CC[C@@H]4CC5(CC[C@]4(C)[C@H]3CC(=O)[C@]12C)Nc1ccccc1NC5=NC(C)(C)C (some centres undefined) — outcome?
n

Assay result, entry COc1ccc(NC2=C(I)C(=O)c3ncccc3C2=O)cc1 — outcome?
n

====

Test system: SK-MEL-2 melanoma
Test: NCI-60 one-dose screen, 48 h (100 = growth as untreated, 0 = no growth, -100 = all killed)
Protocol conditions: 10 µM unless noted
This is part of a sample that, as a whole, favours compounds with a hit. Of some 83,000 tested, about 20% had one in any assay.
Endpoint name: growth (%)
Write the value in % as a bare number.

compound O=S(=O)(c1ccccc1)n1cc2c(c1)-c1nc(Nc3ncccn3)sc1CC2 , growth observed: 65.2

compound O=C(C[C@]1(O)C(=O)Nc2ccccc21)c1cccc(C(F)(F)F)c1 , growth observed: 91.2

compound c1ccc([P+](c2ccccc2)(c2ccccc2)c2ccc3c4ccc([P+](c5ccccc5)(c5ccccc5)c5ccccc5)c5cccc(c6cccc2c63)c54)cc1 , growth observed: 18.6

====

Tested on: HT29 colon
Test: NCI-60 one-dose screen, 48 h
Protocol conditions: 10 µM unless noted
Experimental: Growth inhibition of the HT29 human tumor cell line is measured as a screen for anti-cancer activity. Cells are grown in 96 well plates and exposed to the test compound for 48 hours. Compounds are tested at a single concentration, which is 10^-5 M for most compounds. The reported endpoint is percent growth (GI% or GIPRCNT), where numbers from 0 - 100% represent growth inhibition, and numbers from -100% - 0 represent cell death. For example, a value of 40 represents 60% growth inhibition. […]
Compounds without any hit were thinned out: in the full panel of roughly 83,000, 20% have a hit. Activity calls are given as the source filed them. How the source made its calls: active means growth percent below 10; inactive means the rest.
I would appreciate it if you answered using one of these outcomes: active, inactive

Assay result, entry Nc1nc(-c2ccc(Cl)cc2)nc2c1sc(=S)n2-c1ccccc1 — outcome?
inactive

====

Reported growth values are given for each entry in this list.
Test system: RPMI-8226 leukemia
Test: NCI-60 one-dose screen, 48 h (100 = growth as untreated, 0 = no growth, -100 = all killed)
Protocol conditions: 10 µM unless noted
The panel holds about 83,000 compounds, 20% with a hit somewhere; the sample as a whole holds those more often.
Write the value in % as a bare number.

Known growth results, listed for orientation:
COCCn1cc(-c2csc(-c3cn(C)c4ccc(Br)cc34)n2)c2cccnc21: 60.7
Cc1nc2sc(C(=O)Nc3cccc(Br)c3)c(N)c2cc1C(O)c1ccccc1 (stereo not given): 11.1
O=C(Nc1ccccc1O)c1ccc(CNC(=O)c2sccc2Nc2ccnc(C(F)(F)F)c2)cc1: 24.3
COc1ccc(/C=C/C(=O)c2cc3c(N)c(C(=O)Nc4cccc5ccccc45)sc3nc2C)cc1: 33.4
COCCn1cc(-c2nc(-c3cc4cccnc4[nH]3)cs2)c2cc(OC)ccc21: 27.1
COC(=O)c1cc(N=C2NC(=O)/C(=C/C=C/c3ccccc3)S2)ccc1O: 18.8
O=c1scc(-c2ccc(C(F)(F)F)cc2)s1: 97.7
CCO/C=N/C1=C(C#N)C(c2ccc(Cl)cc2)c2sc3c(F)cccc3c2O1 (stereo not given): 54.2
COc1c(C(=O)Nc2ccc(C)c(Br)c2)ccc2ccccc12: 95.7

# ---- query compound ----
compound COC1=CC(c2ccc[nH]2)=N/C1=C\c1[nH]c(C)c(CC(=O)NCc2ccccc2)c1C , growth observed: 18.4
